Overview of reported % inhibition of neurite outgrowth (peptide 125 µg/mL) across a group of binders:
# ASSAYED SYSTEM: T1, chick N-cadherin expressed on transfected 3T3 cells (chick, UniProt P10288 165-912)
# T1 sequence (looked up): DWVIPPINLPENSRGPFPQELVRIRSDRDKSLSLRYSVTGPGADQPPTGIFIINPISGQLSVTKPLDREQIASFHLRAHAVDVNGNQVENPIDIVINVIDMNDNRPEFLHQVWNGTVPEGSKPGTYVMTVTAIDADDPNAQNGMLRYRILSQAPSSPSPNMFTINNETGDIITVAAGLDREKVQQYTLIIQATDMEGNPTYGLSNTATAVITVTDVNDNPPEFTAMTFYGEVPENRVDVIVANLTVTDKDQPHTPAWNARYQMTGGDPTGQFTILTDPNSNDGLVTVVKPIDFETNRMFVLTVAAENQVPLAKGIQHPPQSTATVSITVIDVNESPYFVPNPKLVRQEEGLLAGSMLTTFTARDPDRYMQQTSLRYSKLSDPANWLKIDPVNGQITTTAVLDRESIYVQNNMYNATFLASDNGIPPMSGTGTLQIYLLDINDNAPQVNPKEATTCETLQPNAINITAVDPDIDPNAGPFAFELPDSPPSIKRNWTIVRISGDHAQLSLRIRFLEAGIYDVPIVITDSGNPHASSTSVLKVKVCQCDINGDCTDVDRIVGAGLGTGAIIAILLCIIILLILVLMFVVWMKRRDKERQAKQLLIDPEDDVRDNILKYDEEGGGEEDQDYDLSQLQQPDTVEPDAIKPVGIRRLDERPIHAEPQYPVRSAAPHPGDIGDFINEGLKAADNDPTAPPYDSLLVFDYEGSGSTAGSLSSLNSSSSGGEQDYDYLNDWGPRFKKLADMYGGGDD
# PROTOCOL SUMMARY: cell-based or functional assay
Positions of bridges follow the written chain, without caps; N, C: chain ends.
Hi, when you answer, please include the unit after the number. Thanks!

Use these answered entries as a reference point.
Ac-CHAVDINGC-NH2 (disulfide 1-9 (inferred)) [N-Ac-CHAVDINGC-NH2] = 1.5%
Ac-CHAVDIC-NH2 (disulfide 1-7 (inferred)) [N-Ac-CHAVDIC-NH2] = 88.3%

[Q] // lookup % inhibition of neurite outgrowth (peptide 125 µg/mL) for Ac-CHAVYC-NH2 (disulfide 1-6 (inferred)) [N-Ac-CHAVYC-NH2]
[A] 64.9%
